Molecular target: total histone deacetylation in a HeLa nuclear extract
Experiment: Histone deacetylase assay (BioMol AK500 kit), HeLa nuclear extract
Type: biochemical
Settings: HeLa nuclear extract; read-out: IC50, total histone deacetylation inhibition (converted)
Experimental readout: IC50 (µM)

O=C(CCCCCCC(=O)Nc1ccccn1)Nc1ccccc1 [Compound 8c]    99

[I] O=C(CCCCCC(=O)Nc1ccccn1)Nc1ccccc1 [Compound 8b]
[II] COc1ccc(NC(=O)CCCCCC(=O)Nc2ccccc2)cc1 [Compound 10b]
Prompt: When I and II are compared, which has the higher number for IC50? Respond with the label that goes with your answer.
Response: II
(II: 438 µM, I: 140 µM)
